# targetOrTestSystem: monkey DLL3 on CHO-K1-cyno DLL3 cells (cynomolgus monkey)
# Sequence (chain, as listed by the source limits assumed): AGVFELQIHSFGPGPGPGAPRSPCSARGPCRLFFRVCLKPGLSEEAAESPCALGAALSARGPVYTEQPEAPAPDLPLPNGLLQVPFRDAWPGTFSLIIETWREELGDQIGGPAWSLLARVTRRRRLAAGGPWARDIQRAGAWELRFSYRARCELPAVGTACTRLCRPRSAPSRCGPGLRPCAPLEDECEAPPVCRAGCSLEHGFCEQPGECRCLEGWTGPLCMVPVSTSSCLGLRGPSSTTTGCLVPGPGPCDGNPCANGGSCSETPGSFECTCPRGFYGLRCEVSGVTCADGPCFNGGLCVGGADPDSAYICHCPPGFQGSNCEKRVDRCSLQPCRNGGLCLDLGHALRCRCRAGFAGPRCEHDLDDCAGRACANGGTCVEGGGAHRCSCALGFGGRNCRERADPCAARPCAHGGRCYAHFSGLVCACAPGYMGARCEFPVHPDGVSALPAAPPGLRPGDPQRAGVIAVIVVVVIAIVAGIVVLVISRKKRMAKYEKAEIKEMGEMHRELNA
# method: FACS, CHO-K1-cyno DLL3 cells, 20 nM antibody
measure: MFI (MFI)
# unit: MFI | format: bare number

[[record]]
binder = "Hab015VL4VH1b-hFc (scFv, part only; not given: VL-VH linker and human IgG1 Fc, V domains shown, not shown: another chain or arm of the molecule; a dimerising Fc or GST; small tags and cut ends) VL: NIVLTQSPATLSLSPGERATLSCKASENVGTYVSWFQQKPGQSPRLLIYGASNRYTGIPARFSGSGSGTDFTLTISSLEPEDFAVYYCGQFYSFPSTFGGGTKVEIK VH: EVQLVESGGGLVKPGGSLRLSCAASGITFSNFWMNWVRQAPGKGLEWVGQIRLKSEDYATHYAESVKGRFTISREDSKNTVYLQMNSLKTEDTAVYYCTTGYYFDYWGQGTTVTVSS"
unitabbrev = "MFI"
reading = 6820

[[record]]
binder = "Hab015VL5VH1b-hFc (scFv, part only; not given: VL-VH linker and human IgG1 Fc, V domains shown, not shown: another chain or arm of the molecule; a dimerising Fc or GST; small tags and cut ends) VL: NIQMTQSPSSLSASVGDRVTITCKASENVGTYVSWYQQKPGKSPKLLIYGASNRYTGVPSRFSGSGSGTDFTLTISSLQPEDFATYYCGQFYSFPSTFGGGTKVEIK VH: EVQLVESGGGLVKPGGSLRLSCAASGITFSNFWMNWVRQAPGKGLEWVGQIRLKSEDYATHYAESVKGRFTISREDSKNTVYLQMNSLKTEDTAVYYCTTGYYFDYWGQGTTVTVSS"
unitabbrev = "MFI"
reading = 6970

[[record]]
binder = "Hab009VL2aVH1-hFc (scFv, part only; not given: VL-VH linker and human IgG1 Fc, V domains shown, not shown: another chain or arm of the molecule; a dimerising Fc or GST; small tags and cut ends) VL: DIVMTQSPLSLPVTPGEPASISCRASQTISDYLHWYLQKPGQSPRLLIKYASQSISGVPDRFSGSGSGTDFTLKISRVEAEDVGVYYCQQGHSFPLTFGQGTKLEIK VH: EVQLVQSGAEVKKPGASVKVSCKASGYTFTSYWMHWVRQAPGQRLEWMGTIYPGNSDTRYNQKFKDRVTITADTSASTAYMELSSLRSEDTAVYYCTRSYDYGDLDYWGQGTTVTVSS"
unitabbrev = "MFI"
reading = 28200

[[record]]
binder = "Hab009VL3aVH1-hFc (scFv, part only; not given: VL-VH linker and human IgG1 Fc, V domains shown, not shown: another chain or arm of the molecule; a dimerising Fc or GST; small tags and cut ends) VL: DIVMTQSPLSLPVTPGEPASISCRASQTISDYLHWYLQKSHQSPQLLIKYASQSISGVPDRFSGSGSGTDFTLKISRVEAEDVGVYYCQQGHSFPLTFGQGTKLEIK VH: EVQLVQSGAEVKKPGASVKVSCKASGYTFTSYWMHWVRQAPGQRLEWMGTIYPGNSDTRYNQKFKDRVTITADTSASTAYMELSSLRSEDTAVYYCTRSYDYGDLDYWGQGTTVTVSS"
unitabbrev = "MFI"
reading = 30000

[[record]]
binder = "Hab008L1H2a-hFc (scFv, part only; not given: VL-VH linker and human IgG1 Fc, V domains shown, not shown: another chain or arm of the molecule; a dimerising Fc or GST; small tags and cut ends) VL: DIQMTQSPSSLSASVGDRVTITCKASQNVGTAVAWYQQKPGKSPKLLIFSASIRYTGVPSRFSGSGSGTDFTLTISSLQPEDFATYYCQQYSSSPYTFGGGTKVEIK VH: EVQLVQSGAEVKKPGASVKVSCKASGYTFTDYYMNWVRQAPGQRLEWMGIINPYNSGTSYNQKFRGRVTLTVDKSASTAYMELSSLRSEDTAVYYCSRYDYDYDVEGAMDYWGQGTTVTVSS"
unitabbrev = "MFI"
reading = 19500


Attention now shifts to the item below.
# input GET /values?readout=MFI&item= Hab014VL3VH1-hFc (scFv, part only; not given: VL-VH linker and human IgG1 Fc, V domains shown, not shown: another chain or arm of the molecule; a dimerising Fc or GST; small tags and cut ends) VL: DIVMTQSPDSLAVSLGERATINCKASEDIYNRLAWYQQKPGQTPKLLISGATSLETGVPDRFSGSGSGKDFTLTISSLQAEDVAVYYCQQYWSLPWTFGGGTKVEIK VH: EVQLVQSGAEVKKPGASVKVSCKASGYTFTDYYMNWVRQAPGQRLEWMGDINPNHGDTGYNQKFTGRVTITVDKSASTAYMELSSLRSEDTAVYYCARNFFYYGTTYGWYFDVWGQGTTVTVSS
# output 32500
